Test system: A. fum.
Test: In vitro antifungal MIC, NCCLS M38P broth method in RPMI 1640/MOPS pH 7
Format: cell-based, Aspergillus fumigatus
Conditions: A. fumigatus strain 1008; RPMI 1640, MOPS pH 7
Source text: The in vitro evaluation of the antifungal activity of the compound of this invention (as shown in Table I) can be performed by determining the minimum inhibitory concentration (MIC) which is the concentration of the test compound in Rosewell Park Memorial Institute (RPMI) 1640 liquid medium buffered with 3-(Morpholino)propane sulfonic acid (MOPS) to pH 7, at which there is significant inhibition of the particular fungi. […]
recorded endpoint: MIC (A. fum.) 1008

Before answering, review these 3 worked examples.
C[C@@H](n1ncn(-c2ccc(-n3ncnn3)cc2)c1=S)[C@](O)(Cn1cncn1)c1ccc(F)cc1F : 2 µg/mL
COC(=O)C(c1ccccc1)n1cnn([C@H](C)[C@](O)(Cn2cncn2)c2ccc(F)cc2F)c1=S (stereo partly shown) : >16 µg/mL
COC(=O)C(CC(C)C)n1cnn([C@H](C)[C@](O)(Cn2cncn2)c2ccc(F)cc2F)c1=S (stereo partly shown) : >16 µg/mL

Here is the next item to consider.
Enquiry: Report MIC (A. fum.) 1008 for COC(=O)C(CCSC)n1cnn([C@H](C)[C@](O)(Cn2cncn2)c2ccc(F)cc2F)c1=S (stereo partly shown) please.
Return: >16 µg/mL

Source of measurements: patent US20060178415A1
